- Tested on: BT-549
- assay-explanation: NCI tumour cell line growth inhibition, 48 h
Calls of active or inactive are those of the source. No stated cut-off is given here; in the data, active = GI50 up to about 1.1 µM and inactive = higher.
Respond using exactly one of the listed classes: 1 (active), -1 (inactive)

Field: example entries. Status: answers known.
compound | assigned-label
CCOC(=O)c1c(N2CCOCC2)[nH]c(=O)c(C(c2ccc(Cl)c([N+](=O)[O-])c2)c2c(O)c(C(=O)OCC)c(N3CCOCC3)[nH]c2=O)c1O | -1
C(=C\c1cc(-c2ccc3ccccc3n2)nc2ccc3ccccc3c12)/c1ccc2ccccc2n1 | -1
COc1cccc2c1C(=O)c1c(O)c3c(c(O)c1C2=O)C[C@@](O)(/C(C)=N/NC(=O)c1ccc(Cl)c(Cl)c1)C[C@@H]3OC1CC(N)C(O)C(C)O1 (stereo partly drawn) | 1
CC(=O)NC1C(OC(C)C(=O)NC(C(=O)NC(CCC(=O)NCCCNC2c3ccccc3Nc3cccc([N+](=O)[O-])c32)C(N)=O)C(C)C)C(O)C(CO)OC1(C)OCc1ccccc1 (stereo not drawn) | -1
COc1ccc(/C=C2\CCCCCC2=O)cc1 | -1
Cc1nn(C)c2nc3ccc(Cl)cc3c(-c3ccccc3)c12 | -1
CN(C)/N=N/c1nc2c(c(=O)n(C)c(=O)n2C)n1CC1CO1 (stereo not drawn) | -1
C=CCOC(=O)CCCCCCCCCCCCCCCOC(=O)c1c(CCC[C@@H](C)O[Si](C)(C)C(C)(C)C)nc([O-])[n+]2c1CC[C@H]2CC1(CC/C=C\[C@H](CC)O[Si](C(C)C)(C(C)C)C(C)C)OCCO1 | -1
N#Cc1c2c(c(Nc3cccc(C(F)(F)F)c3)n3c1nc1ccccc13)CCC2 | -1
CCNc1ccc2c(c1)Cc1ccccc1-2 | -1

Hi, do you know how `N#Cc1c(N2CCN(c3ccc([N+](=O)[O-])cc3)CC2)[n+]([O-])c2ccc(Cl)cc2[n+]1[O-]` came out in this test?
1

Same for CC(C)=CCc1cc(/C=C/C(=O)O)cc(CC=C(C)C)c1O [ARTEPILLIN]
-1

Same for CC1=NN(C(=O)c2ccncc2)C(=O)C1/N=N/c1ccc2ccccc2c1 (stereo not drawn)
-1

Same for COc1cc(NC(C)c2ccc3c(c2)OCCO3)cc(OC)c1OC (stereo not drawn)
-1

Same for `CC(C)Cn1cnc2c(SCc3ccc(Cl)cc3Cl)nc(N)nc21`
-1

Same for O=C(O)C1=C(C(=O)O)N(c2ccncc2)C(c2ccco2)=CC1c1ccccc1[N+](=O)[O-] (stereo not drawn)
-1

Same for `CN(C)CCCNC(=O)c1cc2/c(=C\c3ccc(N(C)C)cc3)c3ccccc3n2[n+]1C`
-1

Same for `COc1cc2c(c(OC)c1OC)C(=O)[C@@H]1[C@H]2N1C(=O)NCCCl`
-1

---

I'd appreciate it if you could supply GI50 values for the items below.
- Tested on: SK-OV-3
- assay-explanation: NCI tumour cell line growth inhibition, 48 h
Activity calls are given as the source filed them. No stated cut-off is given here; in the data, active = GI50 up to about 1.1 µM and inactive = higher.

compound | value-measured
OC1c2ccccc2CC12Cc1ccccc1C2 (configuration not stated) | > 100 µM (inactive)
C/C(CC(=O)Nc1cccc(C)c1C)=N\NC(N)=S | > 100 µM (inactive)
Cc1nc2ccc(Br)cc2c(=O)n1-c1nnc(C(C)(C)C)s1 | > 10 µM (inactive)
O=C(CC1(O)C(=O)Nc2ccccc21)c1ccccc1O (configuration not stated) | > 100 µM (inactive)
COC(=O)c1cc(Br)c(Br)n1C | > 100 µM (inactive)

For each of the compounds below, state GI50.
1. COc1cccc(/C=C2\CCCc3ccccc3C2=O)c1
2. CSc1c2c(C)n[nH]c2nn1-c1ccccc1
3. CC(C)COP(=O)(OCC(C)C)C(NS(=O)(=O)c1ccccc1)(C(F)(F)F)C(F)(F)F
4. Cc1c(Cc2ccccc2)n(C(C)OCCN(OC(=O)Oc2ccccc2)C(=O)Oc2ccccc2)c(=O)[nH]c1=O (configuration not stated)
5. COC(=O)c1ccc(NCC2=C(Br)C(=O)C=CC2=O)cc1Cl
6. O=C1CCCc2ccc([N+](=O)[O-])c(O)c21

["30.5 µM (inactive)", "> 100 µM (inactive)", "5.47 µM (inactive)", "17.4 µM (inactive)", "> 100 µM (inactive)", "> 100 µM (inactive)"]

---

- System: CCRF-CEM
- assay-explanation: NCI tumour cell line growth inhibition, 48 h
Calls of active or inactive are those of the source. Cut-off read from the data, not from the text of the source: active = GI50 up to about 1.1 µM and inactive = higher.
assay-endpoint: GI50

Answered cases to consult:
molecule | value-measured
O=NN(CCCl)C(=O)N[C@H]1CC[C@@H](C(=O)O)CC1 | 36.6 µM (inactive)
COC(=O)C1CC(C(=O)OC)c2nc3cc([N+](=O)[O-])ccc3nc21 (centres undefined) | 9.53 µM (inactive)

For each of the molecules below, state GI50.
1. CCN(CC)C1Oc2cc3c(cc2C(c2cccc(OC)c2OC)C1C)OCO3 (centres undefined)
2. CN1CCN([C@H]2C[C@H]3[C@@H]4CC=C5C[C@@H](N6CCCC6)CC[C@]5(C)[C@H]4CC[C@]3(C)[C@H]2O)CC1
3. CC(=O)NC(Cc1c[nH]c2ccccc12)C(=O)O (centres undefined)
4. CC(=O)c1cccc(NCn2nnc3ccccc32)c1

1. 2.17 µM (inactive)
2. 38.6 µM (inactive)
3. > 100 µM (inactive)
4. > 100 µM (inactive)

For each of the molecules below, state GI50.
1. O=C(Cc1ccccc1)NN1C(=O)C(Cl)C1c1cccc([N+](=O)[O-])c1 (centres undefined)
2. O=C(O)CC1OCC=C2CN3CCC45C6=CC(=O)C(O)=C([N+](=O)[O-])C6=NC4C1C2CC35 (centres undefined)
3. COc1cc2cc(C(=O)N3CC(CCl)c4c3cc(N(C)C)c3ccccc43)[nH]c2c(OC)c1OC (centres undefined)

1: 2.33 µM (inactive); 2: 18.1 µM (inactive); 3: < 0.01 µM (active)

---

- Tested on: UACC-62
- assay-explanation: NCI tumour cell line growth inhibition, 48 h
Calls of active or inactive are those of the source. Cut-off read from the data, not from the text of the source: active = GI50 up to about 1.1 µM and inactive = higher.
Respond using exactly one of the listed classes: True (active), False (inactive)

compound | assigned-label
CCOC(=O)C(C)(c1c(C)[nH]c2ccccc12)c1c(C)[nH]c2ccccc12 | False
CCCCCc1cccc(=O)o1 | False
COC(=O)c1ccc(NCC2=C(Br)C(=O)C=CC2=O)cc1Cl | False

Hi, do you know how `NS(=O)(=O)c1cc2c(cc1Cl)NC(/C(=N/NC(=O)c1ccncc1)C1C(=O)NC(=O)NC1=O)=NS2(=O)=O` came out in this test?
False

Same for COCOc1ccc(C(=O)C(C)c2ccc(OCOC)cc2OCOC)c(O)c1 (configuration not stated)
False

Same for COC(OC)c1cccc2c1C1(O)CCC3(CC21)OCCCCO3 (configuration not stated)
False

Same for `COc1ccc(-c2c(C#N)c(N)nc(S)c2C#N)cc1`
False

Same for NC[C@H]1Nc2ccccc2[C@@H](O)C1O (some centres not stated)
False

---

- Tested on: UACC-62
- assay-explanation: NCI tumour cell line growth inhibition, 48 h
The source made the active and inactive calls. Rule as the data show it: active = GI50 up to about 1.1 µM and inactive = higher.
assay-endpoint: GI50

Answered cases to consult:
smiles-string | GI50
CC1=C(C(=O)NNC(=O)c2ccccc2)CC(C(=O)NNC(=O)c2ccccc2)=C(C)N1 | > 100 µM (inactive)
Cc1cc(S(=O)(=O)Nc2nnc3c4ccccc4cnn23)c(S)cc1Cl | 46.9 µM (inactive)
N#C/C(=C/c1cccc(Oc2ccccc2)c1)c1ccccc1 | > 100 µM (inactive)
Cc1ccc(/N=N/C(=N/NC(=O)c2cc(Cl)ccc2O)c2ccc(N(CCC#N)CCC#N)cc2C)cc1 | 22.7 µM (inactive)

Record request: GI50 value, item `COc1cc(OCc2ccc3nc(-c4ccccc4)c(Cl)nc3c2)cc(OC)c1OC`
83.2 µM (inactive)

---

- System: HL-60
- assay-explanation: NCI tumour cell line growth inhibition, 48 h
Calls of active or inactive are those of the source. No stated cut-off is given here; in the data, active = GI50 up to about 1.1 µM and inactive = higher.
I'd appreciate it if you could supply GI50 values for the items below.

Answered cases to consult:
compound | GI50
COC1C=CC(O)C(CO)O1 (configuration not stated) | > 100 µM (inactive)
Cc1cccc(C(C)(C)C)c1NC(=O)C(=O)Cc1nc2ccccc2s1 | > 100 µM (inactive)
COc1ccccc1Nc1nc(N)nc(N)c1N=O | > 100 µM (inactive)

For each of the compounds below, state GI50.
1. CC1=C(C(=O)NCc2ccccc2)C(/C=C/c2ccccc2)C(C(=O)NCc2ccccc2)=C(C)N1
2. CC(C)=CC(=O)Oc1ccc([N+](=O)[O-])cc1
3. COP(=O)(OC)[C@H](O)[C@H]1C[C@@H]1c1ccccc1
4. CCCCOP1(=O)C=CC(Cl)=C(C)C1 (configuration not stated)

["> 100 µM (inactive)", "24.7 µM (inactive)", "> 100 µM (inactive)", "16.1 µM (inactive)"]

For each of the compounds below, state GI50.
1. CC(C)[C@H]1CO[C@]2(C)[C@@H]3CN(Cc4ccccc4)C[C@@H]3C(=O)N12
2. Nc1ccc(C(=O)NN2C(=O)C(Cl)C2c2ccccc2Cl)cc1 (configuration not stated)
3. NCCNC(=S)S
4. Nc1nc(NCC2(CO)CC2)cc(=O)[nH]1
5. CC(O[Si](C)(C)C)C1C=CC(C)n2c(=O)n(-c3ccccc3)c(=O)n21 (configuration not stated)
6. COC(=O)C1(c2ccc(N(C)C)cc2OC)CCCN(C(=O)Oc2ccccc2[N+](=O)[O-])CCc2c1[nH]c1ccccc21 (configuration not stated)
7. CC(/C=C1\CCC(CN(C)C)C1=O)c1cccc(Br)c1 (configuration not stated)
8. CCN(CC)CCC(=O)c1ccc(Sc2ccc(F)cc2)cc1

1: > 100 µM (inactive); 2: 1.02 µM (active); 3: 44.7 µM (inactive); 4: > 100 µM (inactive); 5: > 100 µM (inactive); 6: 22.9 µM (inactive); 7: 3.06 µM (inactive); 8: 20.1 µM (inactive)

For each of the compounds below, state GI50.
1. C=C1C(=O)OC2C/C(C)=C/CC/C(C)=C/CCC3(COC(C)=O)OC3CC12 (configuration not stated)
2. Cc1nn(C)c2nc3ccc(Cl)cc3c(-c3ccccc3)c12
3. O=C(O)CN(CCNC(=O)OCC1c2ccccc2-c2ccccc21)CCNC(=O)OCC1c2ccccc2-c2ccccc21
4. C=C(C(=O)OC)c1cc2ccccc2n1S(=O)(=O)c1ccccc1
5. Cc1cc(Cl)ccc1NC(=O)CCCC(=O)C1C/C(=N/O)CC/C1=N\O (configuration not stated)

1: 2.21 µM (inactive); 2: > 100 µM (inactive); 3: 24.6 µM (inactive); 4: 1.87 µM (inactive); 5: > 100 µM (inactive)

For each of the compounds below, state GI50.
1. O=C(NC(c1ccccc1)C(O)C(=O)OCc1ccc2c(c1)C(=O)c1ccccc1C2=O)c1ccccc1 (configuration not stated)
2. COc1cccc2c1C(=O)c1c(O)c3c(c(O)c1C2=O)C[C@@](O)(/C(C)=N/NC(=O)c1ccc(Cl)c(Cl)c1)C[C@@H]3OC1CC(N)C(O)C(C)O1 (some centres not stated)

1. > 83.6 µM (inactive)
2. 0.0348 µM (active)

Entry source: ChEMBL document CHEMBL1201862
